Origin of the recorded values: patent US20190030170A1

assay: solubility of CBD in water and other aqueous solvents with Captisol (SAE-CD) and/or added polymers, surfactants, pH; assay type: physicochemical; details: aqueous solvent, aqueous with cosolvent or surfactant or cyclodextrin, Captisol 20%, 0.5% CMC
OUTCOME MEASURE: solubility (µg/mL)

1. C=C(C)[C@@H]1CCC(C)=C[C@H]1c1c(O)cc(CCCCC)cc1O	14.5

---

experiment: solubility of CBD in water and other aqueous solvents with Captisol (SAE-CD) and/or added polymers, surfactants, pH; assay type: physicochemical; conditions: aqueous solvent, aqueous with cosolvent or surfactant or cyclodextrin, Captisol 0%, 1% CMC
OUTCOME MEASURE: solubility (µg/mL)

1. C=C(C)[C@@H]1CCC(C)=C[C@H]1c1c(O)cc(CCCCC)cc1O	593
